Assay: Antioxidant activity assessed as inhibition of lipid peroxidation after 1 hr by TBARS assay
Format: physicochemical
pIC50: −log10 of the molar value.
metric-name: pIC50

Known pIC50 results, listed for orientation:
COc1ccc(NC(=S)NNC(=O)CSCc2cc(C(C)(C)C)c(O)c(C(C)(C)C)c2)cc1: 4.52
COc1ccc(-n2c(S)nnc2CSCc2cc(C(C)(C)C)c(O)c(C(C)(C)C)c2)cc1: 5.55
CC(C)(C)c1cc(CSCC(=O)O)cc(C(C)(C)C)c1O: 4.41
Cc1cc(C(C)(C)C)c(O)c(C(C)(C)C)c1 [BUTYLATED HYDROXYTOLUENE]: 4.44
COc1ccccc1-n1c(S)nnc1CSCc1cc(C(C)(C)C)c(O)c(C(C)(C)C)c1: 4.41
COc1ccccc1Nc1nnc(CSCc2cc(C(C)(C)C)c(O)c(C(C)(C)C)c2)s1: 4.88
Cc1c(C)c2c(c(C)c1O)CC[C@@](C)(CCC[C@H](C)CCC[C@H](C)CCCC(C)C)O2: 5.25

a: COc1ccccc1NC(=S)NNC(=O)CSCc1cc(C(C)(C)C)c(O)c(C(C)(C)C)c1
b: COc1ccc(Nc2nnc(CSCc3cc(C(C)(C)C)c(O)c(C(C)(C)C)c3)s2)cc1
Inquiry: Between the entries labeled a and b , whose measured pIC50 is lower? Identify your selection by its label.
Reply text: a
(a: 4.22, b: 5.10)

====

Test: Antioxidant activity assessed as DPPH free radical scavenging activity after 60 mins by spectrophotometry
Assay type: physicochemical
metric-name: IC50 (µM)

CC(C)(C)c1cc(CSCC(=O)O)cc(C(C)(C)C)c1O: 96.7
O=C1O[C@H]([C@@H](O)CO)C(O)=C1O [ASCORBIC ACID]: 67.8
COc1ccc(Nc2nnc(CSCc3cc(C(C)(C)C)c(O)c(C(C)(C)C)c3)s2)cc1: 76.8
COc1ccccc1Nc1nnc(CSCc2cc(C(C)(C)C)c(O)c(C(C)(C)C)c2)s1: 90.8
COc1ccccc1NC(=S)NNC(=O)CSCc1cc(C(C)(C)C)c(O)c(C(C)(C)C)c1: 52

1: COc1ccc(-n2c(S)nnc2CSCc2cc(C(C)(C)C)c(O)c(C(C)(C)C)c2)cc1
2: COc1ccc(NC(=S)NNC(=O)CSCc2cc(C(C)(C)C)c(O)c(C(C)(C)C)c2)cc1
Inquiry: Could you tell me which of 1 and 2 has the lower IC50 reading? Answer by stating the label of the chosen item.
Reply text: 2
(2: 50.9 µM, 1: 92.7 µM)

====

Assay: Antioxidant activity assessed as inhibition of lipid peroxidation at 100 uM after 1 hr by TBARS assay
Assay type: physicochemical
metric-name: Imax (%)

Cc1cc(C(C)(C)C)c(O)c(C(C)(C)C)c1 [BUTYLATED HYDROXYTOLUENE]: 79.45
COc1ccccc1Nc1nnc(CSCc2cc(C(C)(C)C)c(O)c(C(C)(C)C)c2)s1: 89.18
COc1ccc(NC(=S)NNC(=O)CSCc2cc(C(C)(C)C)c(O)c(C(C)(C)C)c2)cc1: 96.58
Cc1c(C)c2c(c(C)c1O)CC[C@@](C)(CCC[C@H](C)CCC[C@H](C)CCCC(C)C)O2 [ALPHA-TOCOPHEROL]: 84.69
COc1ccc(Nc2nnc(CSCc3cc(C(C)(C)C)c(O)c(C(C)(C)C)c3)s2)cc1: 89.84
COc1ccccc1NC(=S)NNC(=O)CSCc1cc(C(C)(C)C)c(O)c(C(C)(C)C)c1: 94.75
CC(C)(C)c1cc(CSCC(=O)O)cc(C(C)(C)C)c1O: 73.99
COc1ccc(-n2c(S)nnc2CSCc2cc(C(C)(C)C)c(O)c(C(C)(C)C)c2)cc1: 86.43
COc1ccccc1-n1c(S)nnc1CSCc1cc(C(C)(C)C)c(O)c(C(C)(C)C)c1: 76.47
